targetEntity: human DLL3 on DMS-153 cells (human) (UniProt Q9NYJ7)
Sequence (Q9NYJ7 27-618 limits assumed): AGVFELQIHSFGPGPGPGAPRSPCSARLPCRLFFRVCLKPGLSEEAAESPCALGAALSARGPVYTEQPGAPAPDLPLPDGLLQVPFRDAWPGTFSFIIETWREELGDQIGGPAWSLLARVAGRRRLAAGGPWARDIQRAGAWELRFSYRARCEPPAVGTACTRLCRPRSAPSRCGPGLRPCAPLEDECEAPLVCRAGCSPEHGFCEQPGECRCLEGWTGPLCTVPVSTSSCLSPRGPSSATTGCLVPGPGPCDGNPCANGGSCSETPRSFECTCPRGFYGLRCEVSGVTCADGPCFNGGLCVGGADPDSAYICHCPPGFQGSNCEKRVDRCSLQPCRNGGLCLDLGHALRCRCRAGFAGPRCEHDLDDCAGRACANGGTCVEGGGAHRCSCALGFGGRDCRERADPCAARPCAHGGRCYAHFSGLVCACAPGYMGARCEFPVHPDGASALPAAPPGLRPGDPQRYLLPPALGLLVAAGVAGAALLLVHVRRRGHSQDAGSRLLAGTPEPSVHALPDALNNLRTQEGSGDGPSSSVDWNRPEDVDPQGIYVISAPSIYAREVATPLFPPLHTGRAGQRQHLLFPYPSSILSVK
assayOverview: cell-based or functional assay
Here, each record is paired with measured TDCC EC50 (CHO expressed, purified protein; method of Example 2, DMS-153 cells) data.
Enter your answer as a number in pM; do not include the unit.

Sample records with TDCC EC50 (CHO expressed, purified protein; method of Example 2, DMS-153 cells):
binder	unitSymbol	testValue
anti-DLL3 trispecific protein, DLL3 binder 1A011 (protein, part only; not given: anti-CD3 fragment and anti-albumin domain, part only) chain, part: EVQLVESGGGLVQPGGSLTLSCVASGSTSSINAIGWYRRAPGKQRELVAGISSDGSKVYIDSVKGRFTISRDNAKNSVYLQMNSLRAEDTAVYYCYYFRTVSGSSYRYWGQGTLVTVSSGGGGSGGGSGGGGSGGGSHHHHHH	pM	170
anti-DLL3 trispecific protein, DLL3 binder 2E05-M106Q (protein, part only; not given: CD3 binder and albumin binder, part only) chain, part: EVQLVESGGGLVQPGGSLTLSCVASGSPSSINAYGWYRRAPGKQRELVAGISSDGSKVYSDSVKGRFTISRDNAKNSVYLQMNSLRAEDTAVYYCYYFRTVSGSSQSYWGQGTLVTVSSGGGGSGGGSGGGGSGGGSHHHHHH	pM	41
anti-DLL3 trispecific protein, DLL3 binder 2E02 (protein, part only; not given: anti-CD3 fragment and anti-albumin domain, part only) chain, part: EVQLVESGGGLVQPGGSLTLSCVASGSTSAINAMGWYRRAPGKQRELVAGISSDGSKVYVDSVKGRFTISRDNAKNSVYLQMNSLRAEDTAVYYCYYFRTVSGSSQRYWGQGTLVTVSSGGGGSGGGSGGGGSGGGSHHHHHH	pM	120

Looking up anti-DLL3 trispecific protein, DLL3 binder 4D011 (protein, part only; not given: CD3 binder and albumin binder, part only) chain, part: EVQLVESGGGLVQPGGSLTLSCAASGSSVRFLSMAWYRQAPGKKRELVAGISVDGSTDYIDSVKGRFTISRDNAKNSVYLQMNSLRAEDTAVYYCYAYRWRTRYTYWGQGTLVTVSSGGGGSGGGSGGGGSGGGSHHHHHH , I found its TDCC EC50 (CHO expressed, purified protein; method of Example 2, DMS-153 cells) recorded as 98

Looking up anti-DLL3 trispecific protein, DLL3 binder 2C04 (protein, part only; not given: CD3 fragment and albumin sdAb, part only) chain, part: EVQLVESGGGLVQPGGSLTLSCVASGSTSSRNAMGWYRRAPGKQRELVAGISSDGSKLYADSVKGRFTISRDNAKNSVYLQMNSLRAEDTAVYYCYYFRTVLGSSMRYWGQGTLVTVSSGGGGSGGGSGGGGSGGGSHHHHHH , I found its TDCC EC50 (CHO expressed, purified protein; method of Example 2, DMS-153 cells) recorded as 43

Values were extracted from patent US20200095340A1.
